Target: T1, Recombinant hIL-21-Fc (AcroBiosystems) (human, UniProt Q9HBE4 30-162)
T1 construct: bought; also called rhIL-21; not shown: Fc of the bought reagent, not described
T1 sequence (Q9HBE4 30-162): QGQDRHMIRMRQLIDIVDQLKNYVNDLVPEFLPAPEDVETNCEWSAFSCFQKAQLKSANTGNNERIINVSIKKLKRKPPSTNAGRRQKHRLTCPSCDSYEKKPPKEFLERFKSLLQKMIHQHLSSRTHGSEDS
Assay: SPR, Fab on captured rhIL-21-Fc
Recorded koff by entry
Number only, in s⁻¹; omit the unit.

Would you mind telling me what koff value was observed for ZAP122m13 Fab (Fab, V domains shown, Fab) VH: QVQLQESGPGLVKPSETLSLTCTVSGGSISSDYWGWIRQPPGKGLEWIGYISSRGSTNYNPSLKRRVTISVDTSRNQFSLKLSSVTAADTAVYYCARSAGVTDFDFWGQGTLVTVSS VL: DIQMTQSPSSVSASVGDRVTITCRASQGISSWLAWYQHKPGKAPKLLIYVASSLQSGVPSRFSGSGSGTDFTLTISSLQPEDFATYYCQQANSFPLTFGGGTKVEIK ?
1.78e-05

Would you mind telling me what koff value was observed for ZAP122p2 Fab (Fab, V domains shown, Fab) VH: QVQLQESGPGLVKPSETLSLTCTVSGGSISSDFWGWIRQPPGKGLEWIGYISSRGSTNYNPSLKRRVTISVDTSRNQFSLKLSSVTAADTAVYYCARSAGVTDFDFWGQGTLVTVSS VL: DIQMTQSPSSVSASVGDRVTITCRASQGISSWLAWYQHKPGKAPKLLIYVASSLQSGVPSRFSGSGSGTDFTLTISSLQPEDFATYYCQQASSFPLTFGGGTKVEIK ?
1.14e-05

Would you mind telling me what koff value was observed for ZAP122m21 Fab (Fab, V domains shown, Fab) VH: QVQLQESGPGLVKPSETLSLTCTVSGGSISSDFWGWIRQPPGKGLEWIGYISSRGSTNYNPSLKRRVTISVDTSRNQFSLKLSSVTAADTAVYYCARSAAVTDFDFWGQGTLVTVSS VL: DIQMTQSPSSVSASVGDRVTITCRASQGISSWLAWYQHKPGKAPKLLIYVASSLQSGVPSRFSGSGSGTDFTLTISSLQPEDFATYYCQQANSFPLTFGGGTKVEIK ?
0.0011
